- target system: Apoptotic protease-activating factor 1 (Homo sapiens)
- Sequence (O14727 whole entry): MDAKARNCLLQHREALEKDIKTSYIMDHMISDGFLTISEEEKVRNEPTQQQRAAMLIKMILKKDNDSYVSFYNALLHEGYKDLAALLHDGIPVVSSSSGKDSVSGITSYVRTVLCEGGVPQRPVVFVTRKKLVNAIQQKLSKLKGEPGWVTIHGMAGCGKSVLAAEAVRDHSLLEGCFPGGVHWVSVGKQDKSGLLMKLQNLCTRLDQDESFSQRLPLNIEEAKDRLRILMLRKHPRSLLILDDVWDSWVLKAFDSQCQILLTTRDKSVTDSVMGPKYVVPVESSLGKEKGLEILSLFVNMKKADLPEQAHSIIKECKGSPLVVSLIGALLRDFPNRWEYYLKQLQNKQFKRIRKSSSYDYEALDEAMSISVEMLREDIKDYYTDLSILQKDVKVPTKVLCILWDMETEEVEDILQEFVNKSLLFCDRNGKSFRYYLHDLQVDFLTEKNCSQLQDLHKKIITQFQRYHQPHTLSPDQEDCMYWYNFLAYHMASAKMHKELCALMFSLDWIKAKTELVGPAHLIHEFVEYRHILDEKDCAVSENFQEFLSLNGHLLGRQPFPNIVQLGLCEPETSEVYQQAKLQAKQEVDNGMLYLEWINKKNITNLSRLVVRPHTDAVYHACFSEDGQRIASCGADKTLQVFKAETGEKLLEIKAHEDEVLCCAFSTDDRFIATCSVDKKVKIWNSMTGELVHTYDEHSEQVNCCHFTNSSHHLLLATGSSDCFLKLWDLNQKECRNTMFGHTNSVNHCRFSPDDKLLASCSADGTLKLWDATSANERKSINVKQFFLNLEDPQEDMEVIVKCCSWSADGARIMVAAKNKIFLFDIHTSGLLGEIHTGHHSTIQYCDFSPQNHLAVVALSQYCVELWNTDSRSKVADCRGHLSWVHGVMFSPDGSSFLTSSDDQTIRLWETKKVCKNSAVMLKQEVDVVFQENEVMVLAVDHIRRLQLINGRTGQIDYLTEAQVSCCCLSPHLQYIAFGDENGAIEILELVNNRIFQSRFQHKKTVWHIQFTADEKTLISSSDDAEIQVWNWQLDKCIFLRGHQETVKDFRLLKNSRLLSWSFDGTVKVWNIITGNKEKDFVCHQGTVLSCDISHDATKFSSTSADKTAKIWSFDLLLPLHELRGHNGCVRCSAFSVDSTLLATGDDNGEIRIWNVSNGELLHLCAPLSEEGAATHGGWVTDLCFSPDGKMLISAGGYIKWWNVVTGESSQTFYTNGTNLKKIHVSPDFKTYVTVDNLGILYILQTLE
- Type: functional
Active and inactive are the calls of the source.
Possible outcomes: active, inactive

{"columns": ["compound", "class"],
 "data": [
  ["Cc1cc(C(C)(C)CC(C)(C)C)ccc1OCCOCC[N+](C)(C)Cc1ccccc1", "active"],
  ["Cc1cc(N2CCN(c3ccc([N+](=O)[O-])c4cccnc34)CC2)c2ccccc2n1", "active"],
  ["CCCCCCc1cc2cc(-c3nnc(-c4ccccc4O)o3)c(=O)oc2cc1O", "active"],
  ["Cc1nn(-c2ccc(Cl)cc2)c(O)c1C(c1ccccc1O)c1c(C)[nH]n(-c2ccc(Cl)cc2)c1=O (stereo not given)", "active"],
  ["C=CCn1c(COc2cccc(C)c2)nnc1SC(C)C(=O)NC1CC1 (stereo not given)", "inactive"]
]}
